I'd appreciate it if you could supply EC50 values for the items below.
target.or.test.system: cynomolgus LIV-1 (cynomolgus, UniProt A0A2K5WH46 30-741)
Sequence (A0A2K5WH46 entry or part of it): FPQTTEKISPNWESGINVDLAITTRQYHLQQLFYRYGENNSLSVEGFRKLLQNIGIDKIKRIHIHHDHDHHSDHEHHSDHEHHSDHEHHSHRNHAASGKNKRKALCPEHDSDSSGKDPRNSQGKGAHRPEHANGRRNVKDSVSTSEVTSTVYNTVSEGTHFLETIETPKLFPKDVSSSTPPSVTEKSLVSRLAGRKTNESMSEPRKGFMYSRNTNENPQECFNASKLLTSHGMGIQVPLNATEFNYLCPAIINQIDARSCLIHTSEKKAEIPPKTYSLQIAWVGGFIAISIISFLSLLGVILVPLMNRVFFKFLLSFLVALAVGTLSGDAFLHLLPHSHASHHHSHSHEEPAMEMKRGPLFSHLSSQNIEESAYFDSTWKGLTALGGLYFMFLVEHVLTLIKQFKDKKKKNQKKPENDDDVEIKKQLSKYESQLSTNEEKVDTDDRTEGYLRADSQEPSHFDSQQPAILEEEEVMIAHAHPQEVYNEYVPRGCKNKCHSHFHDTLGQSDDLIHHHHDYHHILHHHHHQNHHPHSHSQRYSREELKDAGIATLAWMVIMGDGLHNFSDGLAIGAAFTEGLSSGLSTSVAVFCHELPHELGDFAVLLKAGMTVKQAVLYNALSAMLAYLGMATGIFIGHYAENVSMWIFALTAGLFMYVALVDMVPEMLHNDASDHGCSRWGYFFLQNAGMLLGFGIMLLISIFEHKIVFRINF
protocol.summary: FACS, HEK293/Cyno_LIV-1 cells
Give bare numbers, in nM.

# example entries with known answers
{"columns": ["binder", "EC50 (nM)"],
 "data": [
  ["124H4D11.p2.z15 (antibody, V domains shown) VH: QVPLVQSGAEVVKPGASVKLSCKASGFNIKDYYMHWVKQAPGQGLEWIGWIDPENDDTEYDPKFQGRATMTADTSTSTAYLELSSLRSEDTAVYYCNARYYAFDYWGQGTTVTVSS VL: DVLMTQSPLSLPVTLGQPASISCRSSQSIVHSNANTYLEWYLQRPGQSPKLLIYKVSNRFSGVPDRFSGSGSGTEFTLKISRVEAEDLGVYYCFQGSQVPPTFGGGTKLEIK", 5.37],
  ["124H4D11.p2.z4 (antibody, V domains shown) VH: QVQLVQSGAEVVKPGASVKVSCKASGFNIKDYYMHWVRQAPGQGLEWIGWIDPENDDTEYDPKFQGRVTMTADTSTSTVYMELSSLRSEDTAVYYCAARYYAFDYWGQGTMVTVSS VL: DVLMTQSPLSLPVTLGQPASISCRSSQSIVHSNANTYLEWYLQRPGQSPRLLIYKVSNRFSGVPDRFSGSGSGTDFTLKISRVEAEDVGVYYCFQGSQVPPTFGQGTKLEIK", 0.13]
]}

Just so you know, measured EC50 for 124H4D11.p2.z14 (antibody, V domains shown) VH: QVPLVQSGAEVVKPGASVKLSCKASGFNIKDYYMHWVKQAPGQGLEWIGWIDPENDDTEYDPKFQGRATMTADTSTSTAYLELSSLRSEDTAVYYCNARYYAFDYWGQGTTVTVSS VL: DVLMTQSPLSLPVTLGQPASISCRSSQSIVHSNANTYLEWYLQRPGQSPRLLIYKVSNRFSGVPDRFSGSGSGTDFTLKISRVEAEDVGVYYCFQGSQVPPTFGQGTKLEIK came out at 0.5

Cited source for all entries: patent US20240325555A1
